# Assay Target: sAPPα (Fc-tag enzymatically removed) (UniProt P05067-4 18-612)
# Assay Details: ITC
Attribute Measured: pKd
Note: pKd values are expressed as the negative base-10 logarithm of concentration in M.

pKd in this record for sushi 1 domain of GABABR1a (Fc-tag enzymatically removed) (domain or fragment) TSEGCQIIHPPWEGGIRYRGLTRDQVKAINFLPVDYEIEYVCRGEREVVGPKVRKCLANGSWTDMDTPSRCVR : 6.37
